// provenance: patent US8623429B2

# METHOD_SUMMARY: Example 1: stability of bilberry extract anthocyanosides, 4 hours at 37° C., pH 7.0, with/without DHLA or GSH (HPLC)
# Type: physicochemical
# EXPERIMENTAL_CONDITIONS: bilberry extract 60 mg/100 ml sodium phosphate buffer pH 7.0, fresh sample
MEASURED_PARAMETER: Peak Area, Fresh (0 hours)

(1) COc1cc(-c2[o+]c3cc(O)cc(O)c3cc2OC2OC(CO)C(O)C(O)C2O)cc(O)c1O (stereo not drawn) [Pt-3O-Gal, Petunidin 3-o-galactoside]
(2) COc1cc(-c2[o+]c3cc(O)cc(O)c3cc2O[C@@H]2OC[C@H](O)[C@H](O)[C@H]2O)cc(O)c1O.[Cl-] [Pt-3O-Ara, Petunidin 3-o-arabinoside]
(3) OC[C@H]1O[C@@H](Oc2cc3c(O)cc(O)cc3[o+]c2-c2cc(O)c(O)c(O)c2)[C@H](O)[C@@H](O)[C@@H]1O [Dp-3O-Glc, Delphinidin 3-o-glucoside]
Data request: Sort the entries above numerically by Peak Area, Fresh (0 hours), high end first. Respond with an ordered listing of the labels, as requested.
Data returned: 3, 1, 2
(3: 726.6, 1: 216.4, 2: 140.6)

----------
# METHOD_SUMMARY: Example 9: stability of bilberry extract anthocyanosides, 4 hours at 37° C., pH 7.0, with/without L-cysteine
# Type: physicochemical
# EXPERIMENTAL_CONDITIONS: pH 7.0, 37° C., 4 hours
MEASURED_PARAMETER: % left, L-cysteine 20 mg (%)

COMPOUND	% left, L-cysteine 20 mg, %
OC[C@H]1O[C@@H](Oc2cc3c(O)cc(O)cc3[o+]c2-c2ccc(O)c(O)c2)[C@H](O)[C@@H](O)[C@H]1O [Cn-3O-Gal, Cyanidin-3-O-galactoside]	77.3

(a) OC[C@H]1O[C@@H](Oc2cc3c(O)cc(O)cc3[o+]c2-c2cc(O)c(O)c(O)c2)[C@H](O)[C@@H](O)[C@H]1O [Dp-3O-Gal, Delphinidin 3-o-galactoside]
(b) OC[C@H]1O[C@@H](Oc2cc3c(O)cc(O)cc3[o+]c2-c2ccc(O)c(O)c2)[C@H](O)[C@@H](O)[C@@H]1O [Cn-3O-Glc, Cyanidin 3-o-glucoside]
Data request: Looking only at measured % left, L-cysteine 20 mg, which entry is lower, a or b ? # respond with the chosen item's label
Data returned: a

----------
# METHOD_SUMMARY: Example 9: stability of bilberry extract anthocyanosides, 4 hours at 37° C., pH 7.0, with/without L-cysteine
# Type: physicochemical
# EXPERIMENTAL_CONDITIONS: bilberry extract 60 mg in buffer pH 7.0, fresh sample
MEASURED_PARAMETER: Peak Area, Fresh solution

COMPOUND	Peak Area, Fresh solution
OC[C@H]1O[C@@H](Oc2cc3c(O)cc(O)cc3[o+]c2-c2ccc(O)c(O)c2)[C@H](O)[C@@H](O)[C@H]1O [Cn-3O-Gal, Cyanidin-3-O-galactoside]	465.8
OC[C@H]1O[C@@H](Oc2cc3c(O)cc(O)cc3[o+]c2-c2cc(O)c(O)c(O)c2)[C@H](O)[C@@H](O)[C@H]1O [Dp-3O-Gal, Delphinidin 3-o-galactoside]	654.4
OC[C@H]1O[C@@H](Oc2cc3c(O)cc(O)cc3[o+]c2-c2ccc(O)c(O)c2)[C@H](O)[C@@H](O)[C@@H]1O [Cn-3O-Glc, Cyanidin 3-o-glucoside]	987.9
OC[C@H]1O[C@@H](Oc2cc3c(O)cc(O)cc3[o+]c2-c2cc(O)c(O)c(O)c2)[C@H](O)[C@@H](O)[C@@H]1O [Dp-3O-Glc, Delphinidin 3-o-glucoside]	726.6
